Attribution: PubChem BioAssay (NCATS)

Target: alpha-glucosidase (Oryza sativa, rice) (UniProt Q653V4)
Test: Counterscreen for Glucocerebrosidase Inhibitors: qHTS Assay for Rice alpha-Glucosidase at pH 5.0 (AID 997);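 further: 0% = full activity with enzyme and -100% = basal without enzyme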
Conditions: rice alpha-glucosidase enzyme activity; series mostly up to 76.9 µM
Calls of active or inactive are those of the source. The call rests on the fitted dose curve; in most records, active means well fitted curve in the direction sought with a large enough effect; inconclusive means small, poorly fitted or top-dose-only effect, or another doubt; inactive means no such curve, though single readings can be large or run the other way.
Observed property: outcome

Cc1cc(N2CCOCC2)nc2ccc(NC(=O)C3CCCCC3)cc12 inactive
CC(C)(C)Oc1ccccc1Nc1nc(NCCO)nc(N2CCCC2)n1 inactive
CCc1nnc(NC(=O)c2ccc(NS(=O)(=O)c3ccccc3)cc2)s1 inactive
COc1ccc(Cl)cc1Nc1nc(NCCO)nc(N2CCCC2)n1 inactive

* * *

Target: Tyrosine-protein kinase Yes (Homo sapiens) (UniProt P07947)
Sequence (P07947 whole entry, looked up): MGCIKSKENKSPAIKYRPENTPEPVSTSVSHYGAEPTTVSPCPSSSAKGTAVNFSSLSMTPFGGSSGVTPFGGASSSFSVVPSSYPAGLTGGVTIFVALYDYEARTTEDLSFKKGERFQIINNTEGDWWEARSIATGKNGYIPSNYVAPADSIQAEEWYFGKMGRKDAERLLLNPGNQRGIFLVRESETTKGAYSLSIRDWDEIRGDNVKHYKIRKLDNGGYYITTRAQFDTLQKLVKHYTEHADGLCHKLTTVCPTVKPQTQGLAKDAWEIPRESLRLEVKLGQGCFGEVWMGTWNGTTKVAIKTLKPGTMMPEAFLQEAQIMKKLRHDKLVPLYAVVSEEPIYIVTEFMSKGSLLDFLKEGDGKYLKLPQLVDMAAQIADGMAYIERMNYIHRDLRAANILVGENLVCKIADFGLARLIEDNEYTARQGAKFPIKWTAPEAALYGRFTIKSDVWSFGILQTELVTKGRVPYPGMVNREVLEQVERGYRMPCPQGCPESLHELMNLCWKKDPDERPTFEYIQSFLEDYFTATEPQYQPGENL
Assay: qHTS for small molecule inhibitors of Yes1 kinase: Primary Screen (AID 686947); further: nearly all actives have a fitted effect of over 60% in size; further: potency means the concentration at half of the fitted maximal effect
Conditions: Yes1 kinase biochemical qHTS inhibition; series mostly up to 76.9 µM
Description: The Src family of non-receptor protein tyrosine kinases contains nine members, including Yes1, Src, Fyn, Lyn, and […]. These kinases have important roles in a variety of cellular functions, such as cell proliferation, survival, and differentiation. Src, the most well characterized member of this family, has been previously identified as a proto-oncogene. […] In melanoma, it has been shown that Yes1, and not other family members, such as Src, is functionally involved in the malignant phenotype. […]
Records with an inconclusive call do not appear. The source made the active and inactive calls. Calls follow the shape of the dose curve; as a rule, active = well fitted inhibition curve with a large enough effect; inconclusive = small, poorly fitted or top-dose-only effect; inactive = no such curve, though single readings can be large or run the other way.
Observed property: Potency

O=C1NC(=O)C(N2CCc3ccccc32)=C1c1ccc(Cl)cc1 inactive
Cc1ccc(NC(=O)CC2CC2)cc1-c1ccc(C(=O)NCC2CC2)cc1 inactive
CS(=O)(=O)CCNCc1ccc(-c2ccc3ncnc(Nc4ccc(OCc5ccccc5)c(Cl)c4)c3c2)o1 923 nM (active)
N#Cc1c(NC(=O)c2ccc(F)cc2)sc2c1CCCC2 inactive

Note: attention shifts to another entry.
Task: Which Potency is listed for CCS(=O)(=O)c1ccc(OC)c(Nc2nccc(N(C)c3ccc4c(C)[nH]nc4c3)n2)c1 ?
Result: 51.9 nM (active)

* * *

Target: Cytochrome P450 3A4 (Homo sapiens)
Assay: qHTS Assay for Activators of Cytochrome P450 3A4 (AID 885); further: nearly all actives have a fitted effect of over 65% in size
Details: recombinant CYP3A4, Luciferin-PPXE luminescence, 60 min; series mostly up to 57.1 µM
Active and inactive are the calls of the source. The call rests on the fitted dose curve; in most records, active means well fitted activation curve with a large enough effect; inconclusive means small, poorly fitted or top-dose-only effect; inactive means no such curve, though single readings can be large or run the other way.
Observed property: activity change, positive = activation

Compound	activity change, positive = activation
CCC1=C(OC(=O)N(CC)CC)N2C(=O)OC(=NCCOC)[C@]2(Cc2ccccc2)[C@H]2C1=CC[C@H]1C(=O)N(CC(=O)OC)C(=O)[C@H]12	inactive
CCC1=C2CC[C@H]3C(=O)N(CC)C(=O)[C@H]3[C@H]2[C@@]2(C)C(=O)N(CC(=O)OC)C(=O)N2C1=O	inactive
O=Cc1ccc(OC2C=CC(C#Cc3ccccc3)OC2CO)cc1 (stereo unspecified)	-42% [at 11.4 µM] (inactive)
CO[C@H]1COC(=O)[C@@H](Cc2ccccc2)NC(=O)[C@@H](C)COC(=O)C/C=C\[C@@H]1C	-36.9% [at 11.4 µM] (inactive)
CC(C)=CCC/C(C)=C/CO/N=C1/C[C@@H](O)[C@@H](O)[C@@H]2[C@H]3C(=O)N(c4ccc(F)cc4F)C(=O)[C@@H]3CC[C@H]12	-35.2% [at 11.4 µM] (inactive)
Cc1ccc(S(=O)(=O)N[C@H]2COC(=O)[C@H](C)COC(=O)[C@H](C)NC(=O)C/C=C\[C@H]2C)cc1	-41.3% [at 11.4 µM] (inactive)

// input: 6 compounds below; output: activity change, positive = activation for each
1. CO[C@@H]1COC(=O)C/C=C\[C@@H](C)[C@@H]2C=C[C@H](O)[C@@H](COC(=O)CCC[C@H]1C)O2
2. CCCCCCN(C(=O)CCCCCN1C(=O)NC(C2CCCCC2)C(C(=O)OCc2ccccc2)=C1C)C(C(=O)NCCCC)c1ccc(OCC(=O)OC)c(C(=O)OC)c1 (stereo unspecified)
3. CCC1=C2CC[C@H]3C(=O)N(CC)C(=O)[C@H]3[C@H]2[C@@]2(Cc3ccccc3)C(=NCC3CC3)OC(=O)N2C1=O
4. CCc1cc2c(nc1CC)CCN(CC/C(C)=N/OC[C@@H](O)[C@@H]1O[C@@H]3OC(C)(C)O[C@@H]3[C@H]1O)C2
5. CC(=O)N1[C@H](C)C=C[C@]1(Cc1ccccc1)C(=O)NCc1cc(F)cc(C(F)(F)F)c1
6. COC(=O)C(C(C)=O)C(NC(=O)NCc1ccccc1)c1ccccc1 (stereo unspecified)

Result:
1: -44.8% [at 11.4 µM] (inactive); 2: inactive; 3: inactive; 4: -30.5% [at 11.4 µM] (inactive); 5: inactive; 6: -69.4% [at 11.4 µM] (inactive)

* * *

Biological target: Cytochrome P450 2D6 (Homo sapiens) (UniProt P10635)
Sequence (P10635 whole entry, looked up): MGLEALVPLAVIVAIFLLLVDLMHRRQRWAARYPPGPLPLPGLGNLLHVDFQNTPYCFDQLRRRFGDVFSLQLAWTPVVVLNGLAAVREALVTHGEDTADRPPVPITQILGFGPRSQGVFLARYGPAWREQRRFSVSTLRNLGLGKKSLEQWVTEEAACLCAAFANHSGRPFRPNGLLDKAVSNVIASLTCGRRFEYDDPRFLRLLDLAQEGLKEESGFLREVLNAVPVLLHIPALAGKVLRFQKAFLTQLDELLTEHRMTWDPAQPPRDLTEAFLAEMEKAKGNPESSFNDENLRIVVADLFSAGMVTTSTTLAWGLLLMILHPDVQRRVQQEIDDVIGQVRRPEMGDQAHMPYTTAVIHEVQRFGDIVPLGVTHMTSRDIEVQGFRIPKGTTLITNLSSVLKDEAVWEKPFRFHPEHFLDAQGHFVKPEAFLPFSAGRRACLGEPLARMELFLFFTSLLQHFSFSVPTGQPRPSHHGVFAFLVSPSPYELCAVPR
Assay: qHTS Assay for Inhibitors and Substrates of Cytochrome P450 2D6 (AID 891); further: nearly all actives have a fitted effect of over 60% in size
Details: recombinant CYP2D6, luciferin-ME EGE luminescence; series mostly up to 11.4 µM
Inconclusive results are not listed. Calls of active or inactive are those of the source. The call rests on the fitted dose curve; in most records, active means well fitted inhibition curve with a large enough effect; inconclusive means small, poorly fitted or top-dose-only effect; inactive means no such curve, though single readings can be large or run the other way.
Pick from t = active, f = inactive when you respond.

Below, 4 molecules whose answers are already recorded.
Molecule	Group label
CCN1C(C)=C(C(=O)OC)C(c2ccccc2)N2C(=O)[C@](O)(C(=O)OC)C(c3ccccc3)C(C(C)=O)=C12 (stereo not given in full)	f
C=CC[C@@H]1C=C[C@H](O/N=C(\C)CCN2CCCCc3nc(C)c(C)cc32)[C@H](CO)O1	t
CNc1ccccc1C(=O)OCC(=O)c1ccccc1	f
C[C@@H]1/C=C\CC(=O)OC[C@H](C)C(=O)N[C@@H](Cc2ccccc2)C(=O)OC1	f

Pending molecule:
Task: Could you please tell me the result logged for CC(=O)Nc1ccc(C2C(C)CCC3C(=O)N4C(CCC(C)[C@@H]4c4ccc(NC(C)=O)cc4)C(=O)N32)cc1 (stereo not given in full) in this assay?
Result: f

* * *

Target: Cytochrome P450 3A4 (Homo sapiens) (UniProt P08684)
Sequence (P08684 whole entry, looked up): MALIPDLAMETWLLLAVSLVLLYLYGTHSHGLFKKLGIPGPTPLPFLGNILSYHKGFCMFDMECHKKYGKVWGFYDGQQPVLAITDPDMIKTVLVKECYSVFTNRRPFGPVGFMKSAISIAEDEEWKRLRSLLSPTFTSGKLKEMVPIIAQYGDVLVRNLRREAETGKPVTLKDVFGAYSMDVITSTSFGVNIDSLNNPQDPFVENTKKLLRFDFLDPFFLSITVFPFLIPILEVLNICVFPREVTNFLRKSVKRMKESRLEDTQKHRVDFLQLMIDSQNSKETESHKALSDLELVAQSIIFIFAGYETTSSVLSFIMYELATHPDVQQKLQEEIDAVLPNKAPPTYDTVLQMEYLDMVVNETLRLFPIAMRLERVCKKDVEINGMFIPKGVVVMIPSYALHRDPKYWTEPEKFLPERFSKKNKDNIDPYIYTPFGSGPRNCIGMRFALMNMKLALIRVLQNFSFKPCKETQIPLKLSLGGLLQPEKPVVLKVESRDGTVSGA
Experiment: qHTS Assay for Inhibitors and Substrates of Cytochrome P450 3A4 (AID 884); further: nearly all actives have a fitted effect of over 50% in size; further: potency means the concentration at half of the fitted maximal effect
Settings: recombinant CYP3A4, Luciferin-PPXE luminescence; series mostly up to 57.1 µM
Records with an inconclusive call do not appear. Calls of active or inactive are those of the source. Calls come from the whole dose curve; as a rule, active = well fitted inhibition curve with a large enough effect; inconclusive = small, poorly fitted or top-dose-only effect; inactive = no such curve, though single readings can be large or run the other way.
Observed property: Potency

Worked examples, 5 compounds total:
Compound	Potency
CCC1=C2CC[C@H]3C(=O)N(CC)C(=O)[C@H]3[C@H]2[C@@]2(Cc3ccccc3)C(=O)N(CC3CC3)C(=O)N2C1=O	2.51 µM (active)
COC(=O)c1ccc(C(NC(=O)OCc2ccccc2)/C(=C/[C@@H](C)C(=O)N(C)C)c2cccnc2)cc1 (some centres undefined)	5.01 µM (active)
COC(=O)c1ccc(C23CC4(C2)[C@H](CN(Cc2ccc(C(F)(F)F)cc2)[C@@H]4c2ccccc2)C3c2ccc(Cl)nc2)cc1 (some centres undefined)	inactive
CCOC(=O)OCC1C=C[C@H](c2cc(-c3ccccc3)ccc2O)C(c2ccc(C(C)=O)cc2)O1 (some centres undefined)	3.16 µM (active)
CCC1=C2CC[C@H]3C(=O)N(CC(=O)OC)C(=O)[C@H]3[C@H]2[C@@]2(C)C(=NCCc3c[nH]c4ccccc34)OC(=O)N2C1=O	6.31 µM (active)

Provide Potency values for the following items, in order.
1. COc1c2ccoc2cc2oc(C)cc(=O)c12
2. COc1ccc(O[C@H]2C=C[C@@H](c3ccccc3)O[C@H]2COC(=O)CC/C(C)=N/OCC[C@@H]2C=C[C@H](OC(C)=O)[C@H](COC(C)=O)O2)cc1
3. CCCNC(=O)OC[C@@H]1O[C@H](c2ccccc2)C=C[C@@H]1Oc1ccc(OC)cc1

Result:
3.16 µM (active)
3.98 µM (active)
3.98 µM (active)

* * *

Assay: qHTS assay for small molecule activators of the human pregnane X receptor (PXR) signaling pathway (AID 720659); further: 0% is about no effect
Conditions: DPX-2 HepG2 CYP3A4-luciferase, 24 h; series mostly up to 92.3 µM
Active and inactive are the calls of the source. No rule for the calls is given here.
Observed property: outcome

Recorded results for 5 compounds are shown here.
Compound	Reported result
O=[N+]([O-])c1ccc2c(c1)Cc1ccccc1-2	inactive
O=C(O)CN(CCCN(CC(=O)O)CC(=O)O)CC(=O)O	inactive
CCCCOCCOCCO	inactive
Fc1ccc(Br)cc1	inactive
CCCCCCC(O)CCCCCCCCCCC(=O)OC (centres undefined)	inactive

Please give outcome, item by item, for the list that follows.
1. COC(OC)(C(=O)c1ccccc1)c1ccccc1
2. COc1nc(C)nc(NC(=O)NS(=O)(=O)c2ccccc2OCCCl)n1
3. CN(C)CCOCCN(C)C
4. COC(=O)c1ccccc1C(=O)O
5. NNS(=O)(=O)c1ccc(Oc2ccc(S(=O)(=O)NN)cc2)cc1
6. CO[Si](OC)(OC)c1ccccc1

Result:
1: inactive; 2: inactive; 3: inactive; 4: inactive; 5: inactive; 6: inactive

Count: 3. Required value per item: outcome.
1. Cc1c(Cl)cccc1Cl
2. C=C(C)C(=O)OCCOC(=O)C(=C)C
3. Cn1c(=O)[nH]c(=O)n(C2CCCCC2)c1=O

Result:
1: inactive; 2: inactive; 3: inactive
